# Assay Notes: NCI Yeast Anticancer Drug Screen. Data for the mec2-1 strain (AID 157)
# Experimental Context: S. cerevisiae mec2-1 strain, at 50.0 µM (retest, dose inferred, filed as 5.0), stronger effect = higher value
Compounds without any hit were thinned out: in the full panel of roughly 79,000, 15% have a hit.
Endpoint Name: growth inhibition (%)
Answers are plain numbers, in %.

Previously resolved entries follow.
Compound	Endpoint Name	Unit Spec	Number
CN1CC(Br)(Br)C(=O)N(C)C1=O	growth inhibition	%	100
COC1NC(=O)NC(=O)C1=[N+]=[N-] (stereo not given)	growth inhibition	%	-39
C/C1=C\[C@@H](O)C(=O)/C=C/C=C\c2csc(n2)[C@@H](C)NC(=O)C[C@@]2(CC1)S(=O)SC(=O)[C@]2(C)O (stereo not given in full)	growth inhibition	%	99
CC(=O)OCC1OC([S-])C(OC(C)=O)C(OC(C)=O)C1OC(C)=O.CC[PH+](CC)CC.CC[PH+](CC)CC.[Au].[Au] (stereo not given)	growth inhibition	%	99
O=c1[nH]cnc2[nH]cc(CN3CCCCC3)c12	growth inhibition	%	2
O=P(Nc1ccccc1)(Oc1ccccc1)N1CCN(c2ccccc2)CC1 (stereo not given)	growth inhibition	%	96
CC(=O)C(CN(C(C)C)C(C)C)C(c1ccccc1)c1c(O)c2ccccc2oc1=O (stereo not given)	growth inhibition	%	11
CCOC(=O)c1ccccc1N	growth inhibition	%	1

Would you mind giving growth inhibition for every compound in the list below?
1. C[n+]1[se]nc2cc(C(=O)c3ccccc3)ccc21 (tested in a mixture with another compound)
2. CCC[CH2][Sn]1([CH2]CCC)[O]C(=O)c2cccc(C)c2[O]1

99
98
